System: Escherichia coli TOP10;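 note: peptides expressed intracellularly from a pBAD plasmid library in pooled LB shake-flask culture, induced with 0.3% L-arabinose, DNA abundance read by NGS, three biological replicates, DESeq2 with apeglm shrinkage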
Assay: shrunken log2 fold change of peptide-encoding DNA abundance (4.5 h post-induction vs induction); higher = less antimicrobial activity (less host growth inhibition)
Settings: time post-induction: 4.5 h; library: site-saturation at positions 5, 18, 19, 20
Would you mind labelling by shrunken log2 fold change? At or over -0.08 is 1, under is -1.

Worked cases, answers included:
# monomer-sequence, label-value
rows = [
    ("RRIRVRPPRLPRPRPRPRRNPRP", 1),
    ("RRIRVRPPRLPRPRPRPCENPRP", 1),
    ("RRIRNRPPRLPRPRPRPLLHPRP", -1),
]

Decide: is the reported value of shrunken log2 fold change for RRIRPRPPRLPRPRPRPHPMPRP equal to or greater than -0.08?
-1

Decide: is the reported value of shrunken log2 fold change for RRIRHRPPRLPRPRPRPQMDPRP equal to or greater than -0.08?
-1

Decide: is the reported value of shrunken log2 fold change for RRIRMRPPRLPRPRPRPINFPRP equal to or greater than -0.08?
1

Decide: is the reported value of shrunken log2 fold change for RRIRHRPPRLPRPRPRPMYKPRP equal to or greater than -0.08?
-1

Decide: is the reported value of shrunken log2 fold change for RRIRQRPPRLPRPRPRPAISPRP equal to or greater than -0.08?
-1

Decide: is the reported value of shrunken log2 fold change for RRIRSRPPRLPRPRPRPQHSPRP equal to or greater than -0.08?
-1

Decide: is the reported value of shrunken log2 fold change for RRIRPRPPRLPRPRPRPISHPRP equal to or greater than -0.08?
-1

Decide: is the reported value of shrunken log2 fold change for RRIRWRPPRLPRPRPRPDHSPRP equal to or greater than -0.08?
-1

Decide: is the reported value of shrunken log2 fold change for RRIRNRPPRLPRPRPRPPQCPRP equal to or greater than -0.08?
1

Decide: is the reported value of shrunken log2 fold change for RRIRARPPRLPRPRPRPGYAPRP equal to or greater than -0.08?
1

Decide: is the reported value of shrunken log2 fold change for RRIRCRPPRLPRPRPRPNVVPRP equal to or greater than -0.08?
1

Decide: is the reported value of shrunken log2 fold change for RRIRDRPPRLPRPRPRPNRDPRP equal to or greater than -0.08?
1

Source of measurements: the supplement of paper PMC9112550
